Reference source for all entries: patent US9586947B2

# ASSAY_OVERVIEW: Pharmacokinetics assay in rats, intragastric administration
# Format: in vivo
# CONDITION_SET: Sprague-Dawley, rat, in vivo, po, male SD rats, 5 mg/kg, read-out: Clearance CLz/F
PARAMETER: CL/F

Field CL/F (entry CC1(C)C(=O)N(c2ccc(C#N)c(C(F)(F)F)c2)C(=S)N1c1ccc(OCC(O)CO)c(F)c1 (stereo not drawn) ) reads 0.201 L/h/kg

***
Field CL/F (entry CC1(C)C(=O)N(c2ccc(C#N)c(C(F)(F)F)c2)C(=S)N1c1ccc(O[C@H]2COC[C@@H]2O)c(F)c1 ) reads 0.271 L/h/kg

Field CL/F (entry CC1(C)C(=O)N(c2ccc(C#N)c(C(F)(F)F)c2)C(=S)N1c1ccc(OCC2(N)CC2)c(F)c1 ) reads 0.345 L/h/kg
